Exercise: state measured Physical data: log P for each of the compounds provided.
test: log P determination by HPLC (EEC Directive 79/831 Annex V.A8, gradient method); assay type: physicochemical
The reply should be a number, written without any unit.

Task: Value lookup for Physical data: log P; key = `CCN(CC)C(=O)/C=C/c1c(-c2ccccc2F)nc2sc(C(F)(F)F)nn12`
Output: 3.45

Task: Value lookup for Physical data: log P; key = O=C(C=Cc1c(-c2ccc(F)cc2Cl)nc2sc(C(F)(F)F)nn12)NC(CC(F)(F)F)c1ccccc1 (stereo not shown)
Output: 4.25

Task: Value lookup for Physical data: log P; key = `CCN(C)C(=O)/C=C/c1c(-c2ccc(Cl)cc2Cl)nc2sc(C(F)(F)F)nn12`
Output: 3.82

Task: Value lookup for Physical data: log P; key = `O=C(/C=C/c1c(-c2ccc(F)cc2)nc2sc(C(F)(F)F)nn12)NC1CCCCC1`
Output: 3.99

* * *

Exercise: state measured chromatographic logP for each of the compounds provided.
test: log P determination by HPLC (EEC Directive 79/831 Annex V.A8, gradient method); type: physicochemical; details: HPLC, gradient method, acetonitrile/0.1% strength aqueous phosphoric acid or formic acid; read-out: Physical data (logP)
The reply should be a number, written without any unit.

Task: Value lookup for chromatographic logP; key = CC(C)C(C)NC(=O)/C=C/c1c(-c2ccccc2Cl)nc2sc(C(F)(F)F)nn12 (centres unmarked) [Example 0174]
Output: 3.76

Task: Value lookup for chromatographic logP; key = O=C(/C=C/c1c(-c2ccccc2Cl)nc2sc(C(F)(F)F)nn12)NCC1CC1 [Example 0166]
Output: 3.26

Task: Value lookup for chromatographic logP; key = CC(NC(=O)/C=C/c1c(-c2ccc(Cl)cc2)nc2sc(C(F)(F)F)nn12)C(F)(F)F (centres unmarked) [Example 0024]
Output: 4.13

Task: Value lookup for chromatographic logP; key = CC(C)NC(=O)/C=C/c1c(-c2ccccc2Cl)nc2sc(C(F)(F)F)nn12 [Example 0148]
Output: 3.13

Task: Value lookup for chromatographic logP; key = O=C(/C=C/c1c(-c2ccccc2Cl)nc2sc(C(F)(F)F)nn12)NC1CCC1 [Example 0153]
Output: 3.33

* * *

test: log P determination by HPLC (EEC Directive 79/831 Annex V.A8, gradient method); assay type: physicochemical
Exercise: state measured Physical data: logP for each of the compounds provided.
The reply should be a number, written without any unit.

Task: Value lookup for Physical data: logP; key = Cc1csc2nc(-c3ccccc3Cl)c(/C=C/C(=O)NC3CCC3)n12 [Example 0896]
Output: 2.26

Task: Value lookup for Physical data: logP; key = COCc1nn2c(C=CC(=O)NC(C(C)C)C(F)(F)F)c(-c3ccccc3Cl)nc2s1 (centres unmarked) [Example 0818]
Output: 3.54

Task: Value lookup for Physical data: logP; key = CC(C)(C)CCNC(=O)/C=C/c1c(-c2ccccc2Cl)nc2sc(C(C)(C)C)nn12 [Example 0805]
Output: 4.4

Task: Value lookup for Physical data: logP; key = CC(C)C(NC(=O)C=Cc1c(-c2cccnc2Cl)nc2sc(C(F)(F)F)nn12)C(F)(F)F (centres unmarked) [Example 0949]
Output: 3.48

Task: Value lookup for Physical data: logP; key = CCC(C)NC(=O)/C=C/c1c(-c2ccccc2Cl)nc2sc(-c3ccc(C(F)(F)F)cc3)nn12 (centres unmarked) [Example 0847]
Output: 4.33

Task: Value lookup for Physical data: logP; key = CC(C)(C)NC(=O)/C=C/c1c(-c2ccccc2Cl)nc2sc(C(C)(C)C)nn12 [Example 0801]
Output: 3.95

Task: Value lookup for Physical data: logP; key = CC(C)(C)c1nn2c(/C=C/C(=O)NC3CCCCC3)c(-c3ccccc3Cl)nc2s1 [Example 0810]
Output: 3.79

Task: Value lookup for Physical data: logP; key = COCc1nn2c(/C=C/C(=O)NCCC(C)C)c(-c3ccccc3Cl)nc2s1 [Example 0820]
Output: 3.12

Task: Value lookup for Physical data: logP; key = Cc1csc2nc(-c3ccccc3Cl)c(/C=C/C(=O)NCCC(C)C)n12 [Example 0886]
Output: 2.75

Task: Value lookup for Physical data: logP; key = Cc1csc2nc(-c3ccccc3Cl)c(/C=C/C(=O)NCC(C)(C)C)n12 [Example 0885]
Output: 2.67

Task: Value lookup for Physical data: logP; key = COCc1nn2c(/C=C/C(=O)NC(C)C)c(-c3ccccc3Cl)nc2s1 [Example 0824]
Output: 2.4

Task: Value lookup for Physical data: logP; key = CC(C)CCNC(=O)/C=C/c1c(-c2ccccc2Cl)nc2sc(C(C)(C)C)nn12 [Example 0798]
Output: 4.11

Task: Value lookup for Physical data: logP; key = COc1ccc(-c2nc3sc(C(F)(F)F)nn3c2/C=C/C(=O)NC2CCC2)cc1OC [Example 0657]
Output: 3.03

Task: Value lookup for Physical data: logP; key = Cc1cn2c(/C=C/C(=O)Nc3ccc(C(F)(F)F)cc3)c(-c3ccccc3Cl)nc2s1 [Example 0879]
Output: 3.88
